B1: KCNG1 (parent)
chain: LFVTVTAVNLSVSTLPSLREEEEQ

# Variants of: B1
# assay_info: protein stability index of a GFP-peptide fusion (GPS, HEK-293T) (PSI 1-6); higher = more stable;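 note: lentivirally expressed fusions sorted by FACS into six bins by GFP to DsRed ratio, PSI derived from sequencing read proportions per bin multiplied by bin number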
# condition_details: c terminus: a fixed tail appended
Each entry below lists one item and its recorded protein stability index value.
Give a plain numeric answer without units written out.

Guide cases for protein stability index, answers given:
| variant_string | protein stability index |
| --- | --- |
| Q24D | 2.28 |
| S11G | 1.73 |

stdin: Which protein stability index value belongs to "V5K" ?
stdout: 3.75

stdin: Please give the result for "V3G" too.
stdout: 3.53

stdin: Same thing, different variant: "T4D"
stdout: 3.23

stdin: Then this variant: "V12E"
stdout: 2.19

stdin: Param item: "L10K"
stdout: 2.47

stdin: And for "T4A" ?
stdout: 1.37

stdin: Please answer likewise for "R19V"
stdout: 1.99

stdin: Moving on to the next variant: "E21V"
stdout: 1.63

stdin: # repeat for "L15G"
stdout: 1.72

stdin: Also, "A7Q" please.
stdout: 2.58

stdin: Please do the same for "V8C" as well.
stdout: 3.11

stdin: Next variant up: "L18Y"
stdout: 1.35

stdin: And for "F2R" ?
stdout: 2.5

stdin: Try "L15P" next.
stdout: 2.48

stdin: And the next one, "F2D" ?
stdout: 3.99

stdin: Would you mind doing "E20S" as well?
stdout: 3.18

stdin: // next record "R19H"
stdout: 1.41

stdin: Cool, now "T6N"
stdout: 2.29

stdin: Can you check "L1T" next?
stdout: 2.62

stdin: Here is the next variant: "L18V"
stdout: 2.17
